Target: SARS-CoV-2 trimeric spike, WT, C-tag (SARS-CoV-2 (WT), UniProt P0DTC2)
Assay: BLI; BLI: PBS pH 7.4, 1 mM MgCl2 ([…]; flow cytometry 25 C ([…]
Conditions: protein: recombinant; tags: C-tag

binder	binding result
Aptamer-2 (ssDNA) DNA: ATCCAGAGTGACGCAGCAATTACCGATGGCTTGTTTGTAATGTAGGGTTCCGTCGGATTGGACACGGTGGCTTAGT	no binding
CAACCCATGGTAGGTATTGCTTGGTAGGGATAGTGGGCTTG (ssDNA) [SP6.41]	binds
Aptamer-1 (ssDNA) DNA: ATCCAGAGTGACGCAGCATCGAGTGGCTTGTTTGTAATGTAGGGTTCCGGTCGTGGGTTGGACACGGTGGCTTAGT	no binding
TCCGGTTAATTTATGCTCTACCCGTCCACCTACCGGA (ssDNA) [MSA1-T3]	no binding
RBD-PB6 (XNA, 2'-F-modified RNA) RNA: GGGGCCACCAACGACAUUUGUAAUUCCUGGACCGAUACUUCCGUCAGGACAGAGGUUGAUAUAAAUAGUGCCCAUGGAUCC	binds
